Reference for the values: PubChem BioAssay (NCATS)

assay: P-glycoprotein substrates identified in KB-3-1 adenocarcinoma cell line, qHTS therapeutic library screen (AID 1346986); settings: KB-3-1 parental cells viability, CellTiter-Glo, 72 h; series mostly up to 44.5 µM; also: nearly all actives have a fitted effect of over 60% in size;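 also: potency is read from the fitted curve at half-maximal effect; potency is for cytotoxicity meaning loss of cell viability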
Inconclusive results are not listed. Active and inactive are the calls of the source. Calls follow the shape of the dose curve; as a rule, active = well fitted inhibition curve with a large enough effect; inconclusive = small, poorly fitted or top-dose-only effect; inactive = no such curve, though single readings can be large or run the other way.
observed_property: Potency

The cases that follow already have their Potency on record.
# compound, Potency
measured = [
    ("CC/C(C)=C/C(=O)OC1C(OC2(C)CCC3C(C4C(C)CCC42)C3(C)C)OC(C)C(O)C1O (stereo not drawn)", "inactive"),
    ("COc1cc2c(cc1O)C1(Cc3ccc4c(c3C1O)OCO4)[N+](C)([O-])CC2 (stereo not drawn)", "inactive"),
    ("CC#CCn1c(N2CCCC(N)C2)nc2c1c(=O)n(Cc1nc(C)c3ccccc3n1)c(=O)n2C (stereo not drawn)", "inactive"),
    ("C=C1CC[C@@H]2[C@](C)(CO)[C@H](O)CC[C@@]2(C)[C@@H]1C/C=C1/C(=O)OCC1OC(=O)/C(=C/CO)C(O)C[C@@H]1C(=C)CC[C@@H]2[C@](C)(CO)[C@H](O)CC[C@]21C (stereo partly drawn)", "inactive"),
    ("Nc1nc(OCc2cc(Br)cs2)c2[nH]cnc2n1", "inactive"),
]

Task: Which Potency value belongs to COc1ccc(NC(=O)C2C[C@H](C)CC[C@H]2C(C)C)cc1 (stereo partly drawn) ?
Result: inactive

Task: What does the data say about its Potency? Entry: NC(=O)c1ccccc1Nc1ccnc(Nc2cccc(O)c2)n1
Result: 1.3 µM (active)

Task: // returns reported Potency for input CC(C)C[C@H](CO)Nc1nc(S[C@@H](C)c2ccccc2)nc2nc(N)sc12
Result: inactive

* * *

Tested on: astro
Assay: Drug repurposing screens with cells derived from glioblastoma tumor samples (AID 1345199); also: nearly all actives have a fitted effect of over 40% in size; also: potency is read from the fitted curve at half-maximal effect
Settings: viability, ATP luminescence, 48 h; series mostly up to 45.9 µM
Protocol: CD133+ cells were isolated from GBM patient biopsies and cultured as neurospheres. Neurospheres from four patients were used to screen the NCATS pharmaceutical collection (NPC) library of approved drugs and bioactive compounds. […] The neurospheres were incubated with drugs for 48 hours in 1536-well format, then assayed with an ATP content cell viability assay. […]
Records with an inconclusive call do not appear. Active and inactive are the calls of the source. The call rests on the fitted dose curve; in most records, active means well fitted inhibition curve with a large enough effect; inconclusive means small, poorly fitted or top-dose-only effect; inactive means flat fitted curve, though single readings scatter.
observed_property: Potency

Sample records with Potency:
# compound, observed_property, reading
records = [
    ("COc1cc2[nH]c(C)c(CCN3CCN(c4ccccc4)CC3)c2cc1OC", "Potency", "inactive"),
    ("COC(=O)C[C@](O)(CCCC(C)(C)O)C(=O)O[C@@H]1C(OC)=CC23CCCN2CCc2cc4c(cc2[C@H]13)OCO4 (stereo partly specified)", "Potency", "1120 nM (active)"),
    ("CCCC(=O)N1CCCN(c2nc(N)c3cc(OC)c(OC)cc3n2)CC1", "Potency", "inactive"),
    ("CN1CC(O)c2cc(N=NC(N)=O)c(O)cc21 (stereo unspecified)", "Potency", "inactive"),
    ("O=C(O)c1cccc(/C=C2/C[C@@H]3[C@@H](/C=C/[C@@H](O)C4CCCCC4)[C@H](O)C[C@@H]3O2)c1", "Potency", "inactive"),
]

Let us examine a further case.
Task: What measured Potency is associated with CCCCCCCCCCCCCCCC(=O)OC[C@@H](COP(=O)([O-])OCC[N+](C)(C)C)OC(=O)CCCCCCCCCCCCCCC on astro?
Result: inactive
